Test system: OVCAR-4 ovarian
Experiment: NCI-60 one-dose screen, 48 h (100 = growth as untreated, 0 = no growth, -100 = all killed)
Details: 10 µM unless noted
About 83,000 compounds went through this panel and 20% of them were active in at least one assay; those are over-represented in the sample as a whole.
assayMetric: growth (%)
Give bare numbers, in %.

Solved cases below.
[
  {
    "molecule": "Cn1c(=O)c(S(=O)(=O)c2ccccc2)cc2ccc3c(cnn3-c3ccc(Cl)cc3)c21",
    "unitText": "%",
    "growth": 39.1
  },
  {
    "molecule": "CN1CCN(C(=O)OCCOCCOC(=O)N2CCN(C)CC2)CC1",
    "unitText": "%",
    "growth": 106
  },
  {
    "molecule": "CCOc1ccc(-c2cnnn2-c2nonc2-n2cccc2)cc1",
    "unitText": "%",
    "growth": 39.6
  },
  {
    "molecule": "COc1cccc(C2CC(=O)Nc3cc4c(cc32)OCO4)c1OC (configuration not stated)",
    "unitText": "%",
    "growth": 95
  }
]

# return growth for each item in the list
1. Oc1ccccc1/C=N/Nc1nc2ccccc2s1
2. COc1ccc(/C=C2\Oc3cc(C)c(Cl)cc3C2=O)cc1OC
3. COc1cc(C(F)(F)F)ccc1-c1cc(-c2ccc(F)cc2)n[nH]1
4. N#C/C(=C\c1ccc[nH]1)c1cc2ccccc2[nH]1
5. COC(=O)CCC(=O)c1ccccc1

[19.9, 82.3, 71.2, 24.1, 112]

Below is a list of molecules. For each, state its recorded growth.
1. COc1cc2nc(SCc3cc(OC)c(OC)c(OC)c3)n(-c3ccccc3OC)c(=O)c2cc1OC
2. Cc1cc(=O)c2c(C)ccc(C)c2[nH]1
3. O=c1onc(-c2ccccc2)c2ccccc12

1. 83.1
2. 106
3. 106
